biological target: ZER1 (residues 469–766) N553A (human, UniProt Q7Z7L7 469-766, N553A); assay: ITC
Sequence (Q7Z7L7 other isoform, or with tags, fused parts or gaps N553A | N553A): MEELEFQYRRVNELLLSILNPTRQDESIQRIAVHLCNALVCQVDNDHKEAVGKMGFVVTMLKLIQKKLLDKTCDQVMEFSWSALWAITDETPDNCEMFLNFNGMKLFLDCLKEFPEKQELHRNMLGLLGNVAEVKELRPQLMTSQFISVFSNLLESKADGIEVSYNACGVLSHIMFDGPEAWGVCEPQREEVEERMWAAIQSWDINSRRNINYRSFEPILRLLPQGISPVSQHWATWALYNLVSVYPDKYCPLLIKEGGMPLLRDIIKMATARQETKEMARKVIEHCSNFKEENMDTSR
recorded-endpoint: pKd
pKd here: minus log base 10 of the concentration, concentration in moles per litre.

## Task Please list pKd recorded for the binder AFLHVGQD (N-terminus MEEL read as start Met plus native residues from 469; His tag left out) [AFLHVGQD peptide]
## Result 5.12

## Task Find the measured pKd of TFLHVGQD (N-terminus MEEL read as start Met plus native residues from 469; His tag left out) [TFLHVGQD peptide] and report it.
## Result 5.10
